# credit: paper PMC7377239

# Tested on: iCell cardiomyocytes (human iPSC-derived cardiomyocytes)
# EXPERIMENTAL PROTOCOL: Intracellular Ca2+ flux / beating parameters in iCell cardiomyocytes (FLIPR tetra), 90 min or 24 h
# Format: cell-based
# CONDITION LABEL: Homo sapiens, Cardiomyocyte, 1.5 h, 1.00 µM; 90min; 0.00 µM = 100.00; read-out: cm.decay.rise.90min
# Method: Details on cardiomyocyte cell culture are described in detail elsewhere ([Grimm et al. 2015b]; [Sirenko et al. 2013a]). […] Live cell counts for each cell suspension were determined by trypan blue staining and cells were further diluted to provide final cell densities of 2×10^5 viable cells/ml. […] Responses of iCell®-cardiomyocytes to drugs and chemicals were evaluated using intracellular Ca^2+ flux measurements ([Grimm et al. 2015b]; [Sirenko et al. 2013b]). […]
REPORTED ENDPOINT: activity at 1 µM (%)
Response body: numeric value in %, unit text excluded.

Recorded activity at 1 µM, per entry:
Item `Clc1ccc(-c2cc(Cl)c(Cl)c(Cl)c2)cc1Cl` : provide activity at 1 µM
96

Item `Oc1cc(Cl)c(-c2cc(Cl)ccc2Cl)cc1Cl` : provide activity at 1 µM
99.2

Item `Clc1cc(Cl)c(-c2cc(Cl)c(Cl)cc2Cl)cc1Cl` : provide activity at 1 µM
92.5

Next, consider the following compound.
Item `Clc1ccc(Cl)c(-c2c(Cl)ccc(Cl)c2Cl)c1` : provide activity at 1 µM
109
